# credit: ChEMBL document CHEMBL1201862

Calls of active or inactive are those of the source.
As a worked illustration, we turn to IC50 data collected for Estrogen receptor (Homo sapiens, UniProt P03372).

Some solved cases for reference:
Molecule: O=C(NC1CCS(=O)(=O)C1)c1c(NC(=O)C2COc3ccccc3O2)sc2c1CCCC2 (centres undefined)
IC50: > 50 µM (not active)

Molecule: COc1ccc(OC)c(/C=N/c2oc(-c3ccco3)c(-c3ccco3)c2C#N)c1
IC50: 16.3 µM (active)

Molecule: COC(=O)c1cnn2c(C(F)(F)F)cc(-c3ccco3)nc12
IC50: 42.4 µM (not active)

Please turn your attention to the following entry.
I would be grateful if you could share the reported IC50 for Cc1nn(-c2ccccc2)c(Cl)c1/C=N/Nc1ccc(S(=O)(=O)Nc2ccccc2C(=O)O)cc1[N+](=O)[O-] .
6.84 µM (active)

###

Assay system: Mannose-6-phosphate isomerase (Homo sapiens, UniProt P34949)
Sequence (P34949 whole entry): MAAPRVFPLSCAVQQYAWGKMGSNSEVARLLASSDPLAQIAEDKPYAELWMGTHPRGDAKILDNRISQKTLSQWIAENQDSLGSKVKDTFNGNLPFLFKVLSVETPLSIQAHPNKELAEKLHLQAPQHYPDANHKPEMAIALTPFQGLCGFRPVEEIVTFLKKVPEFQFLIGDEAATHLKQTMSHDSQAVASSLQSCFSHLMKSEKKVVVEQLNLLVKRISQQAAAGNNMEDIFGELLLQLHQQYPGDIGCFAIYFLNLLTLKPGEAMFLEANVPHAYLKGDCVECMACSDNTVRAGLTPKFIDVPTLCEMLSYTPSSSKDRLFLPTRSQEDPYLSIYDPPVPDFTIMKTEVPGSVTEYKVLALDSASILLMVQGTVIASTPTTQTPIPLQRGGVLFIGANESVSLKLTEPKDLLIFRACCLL
Protocol description: phosphomannose isomerase inhibition – biochemical, fluorescence intensity, confirmation (AID 1535)
Activity calls are given as the source filed them.
Let's look at some compounds and their measured IC50.

Smiles code: CCOC(=O)Cc1csc(-n2sc3ccccc3c2=O)n1
IC50: > 50 µM (inactive)

Smiles code: O=c1c2c([N+](=O)[O-])cc([N+](=O)[O-])cc2sn1-c1ccc(F)cc1
IC50: 0.709 µM (active)

Smiles code: Cc1ccncc1/N=c1\ssnc1Cl
IC50: 34 µM (active)

Alright, here's another compound for you.
Tell me the measured IC50 of O=c1c2c([N+](=O)[O-])cc([N+](=O)[O-])cc2sn1-c1ccccc1F , please.
1.45 µM (active)

###

Assay system: UniProt O15305
Sequence (O15305 whole entry): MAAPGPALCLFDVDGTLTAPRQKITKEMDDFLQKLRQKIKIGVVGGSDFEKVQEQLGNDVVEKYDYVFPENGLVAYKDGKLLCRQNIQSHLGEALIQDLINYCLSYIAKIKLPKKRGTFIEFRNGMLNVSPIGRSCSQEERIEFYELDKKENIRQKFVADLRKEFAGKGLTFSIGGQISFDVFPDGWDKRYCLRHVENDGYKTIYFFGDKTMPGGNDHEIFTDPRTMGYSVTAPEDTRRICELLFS
Protocol description: Counter screen SAR assay for PMM2 inhibitors via a fluorescence intensity assay. [Related pubchem assays (depositor defined):AID1545, AID1574]
Calls of active or inactive are those of the source.
Log the outcome using a class from YES for active, NO for inactive

Smiles code: O=c1c2c([N+](=O)[O-])cc([N+](=O)[O-])cc2sn1-c1ccccc1F
Class assignment: YES
--
Smiles code: O=c1c2c([N+](=O)[O-])cc([N+](=O)[O-])cc2sn1-c1ccc(F)cc1
Class assignment: YES
--
Smiles code: Cc1ccncc1/N=c1\ssnc1Cl
Class assignment: NO

Field: next molecule
In this assay, the call recorded for CCOC(=O)Cc1csc(-n2sc3ccccc3c2=O)n1 was what?
NO

###

These compounds were tested on Cytochrome P450 2D6 (Homo sapiens, UniProt P10635); AC50 is the recorded read-out.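 Also: CYP2D6 member of a cytochrome P450 panel assay.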
Sequence (P10635 whole entry): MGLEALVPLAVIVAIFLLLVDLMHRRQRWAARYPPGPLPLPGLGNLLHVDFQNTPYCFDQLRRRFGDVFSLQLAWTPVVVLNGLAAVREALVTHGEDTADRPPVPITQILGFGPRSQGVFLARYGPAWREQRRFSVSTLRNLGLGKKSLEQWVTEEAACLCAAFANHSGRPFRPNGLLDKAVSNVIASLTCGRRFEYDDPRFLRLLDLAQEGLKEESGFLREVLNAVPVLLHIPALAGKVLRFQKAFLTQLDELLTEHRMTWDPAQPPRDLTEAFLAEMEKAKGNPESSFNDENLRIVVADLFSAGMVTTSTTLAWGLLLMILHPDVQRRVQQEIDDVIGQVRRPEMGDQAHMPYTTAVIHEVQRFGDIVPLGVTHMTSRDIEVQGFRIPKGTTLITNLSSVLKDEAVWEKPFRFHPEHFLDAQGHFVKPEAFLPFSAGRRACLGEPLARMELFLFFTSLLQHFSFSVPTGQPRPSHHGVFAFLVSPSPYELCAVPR

Study these solved cases before continuing.
Compound: O=S(=O)(NCc1cc(-c2ccccc2)no1)c1ccc(Cl)cc1
Recorded measurement: 20 µM (inconclusive)
--
Compound: O=C(CSc1nnc(-c2ccncc2)n1Cc1ccccc1)Nc1nccs1
Recorded measurement: 17.8 µM (inconclusive)
--
Compound: COc1ccc2c(c[n+](C)c3c4cc5c(cc4ccc23)OCO5)c1OC
Recorded measurement: 25.1 µM (inconclusive)

Given CC(C)CN1CCCC2(CCN(C(=O)c3cccc(F)c3)CC2)C1 , state its recorded AC50.
12.6 µM (inconclusive)

What does the data say about its AC50? Entry: O=C(c1cnccn1)N1CCC2(CCCN(c3ccccn3)C2)CC1
20 µM (inconclusive)

# lookup: AC50 of CS(=O)(=O)N1CCC2(CCCN(Cc3ccc(C#N)cc3)C2)CC1
20 µM (inconclusive)

Which AC50 is listed for CCOC(=O)c1c(-c2ccccc2)nc2c(C)cccn12 ?
0.00562 µM (inconclusive)

Which AC50 value belongs to O=C(CN1CCCCC1)Nc1cccc([N+](=O)[O-])c1 ?
15.8 µM (inconclusive)

Requested read-out: AC50. Entry: Cc1ccc(N2C(=O)CC(c3ccsc3)C3=C2CC(C)(C)CC3=O)cc1 (configuration not stated)
39.8 µM (inconclusive)

# lookup: AC50 of C[N+]1(C)CCC[C@@H](OC(=O)C(O)(c2ccccc2)c2ccccc2)C1
10 µM (inconclusive)

Record request: AC50 value, item O=c1c2cc(Br)ccc2[nH]c(=S)n1Cc1cccnc1
8.91 µM (inconclusive)

Give its AC50 value. Item: Cc1noc(C)c1-c1nccc(NCc2ccccc2)n1
39.8 µM (inconclusive)
